Every entry's value here was drawn from ChEMBL document CHEMBL5137095.

- protocolDetails: n-octanol-water partition coefficient, log P of the compound by HPLC analysis
- Assay type: physicochemical
parameter: logP
Number only, no unit.

Report measured logP; entry is "CCN(CC)Cc1ccccc1CNC(=O)c1cccc(NC(=O)c2ccc(Br)cc2)c1"
2.73

# return recorded logP for entry "CCN(CC)Cc1ccccc1CNC(=O)c1cccc(NC(=O)c2ccc(F)cc2)c1"
1.7

Provide one value: measured logP of "CCN(CC)Cc1ccccc1CNC(=O)c1cccc(NC(=O)c2ccc(F)cc2)c1C"
1.02

State its logP for this compound: "CCN(CC)Cc1ccccc1CNC(=O)c1cccc(NC(=O)c2ccc(Cl)cc2)c1"
2.67

Note down logP recorded for "CCN(CC)Cc1ccccc1CNC(=O)c1cccc(NC(=O)c2cccs2)c1"
2.11

Please report the measured logP for "CCN(CC)Cc1ccccc1CNC(=O)c1cc(C)cc(NC(=O)c2ccc(F)cc2)c1"
1.26

Query logP for "CCCN(CCC)Cc1ccccc1CNC(=O)c1cccc(NC(=O)c2cccs2)c1"
1.02

Give logP for "CCN(CC)Cc1ccccc1CNC(=O)c1cc(F)cc(NC(=O)c2ccc(F)cc2)c1"
1.36

# return recorded logP for input "CCN(CC)Cc1ccccc1CNC(=O)c1cc(Br)cc(NC(=O)c2ccc(F)cc2)c1"
2.04

Name the recorded logP of the compound listed here: "CN(C)Cc1ccccc1CNC(=O)c1cccc(NC(=O)c2cccs2)c1"
1.93

Output measured logP for this item: "CCN(CC)Cc1ccccc1CNC(=O)c1cc(Cl)cc(NC(=O)c2ccc(F)cc2)c1"
1.11
